# testedSystem: HLA-A*03:01
# testMethodNotes: IEDB peptide-MHC binding, purified MHC/competitive/radioactivity; filed as Kd, often an IC50 or EC50 that approximates it; bounds were set here for any values at or beyond the usual limits of such assays
# conditionsUsed: source organism: Dengue virus 3 Martinique/1243/1999
Task for the reader: assign each of the following sequences its reported Kd.

>>> df
   sequenceinput  testedsystem  valuemeasured
0     TTRMENLLWK   HLA-A*03:01         102 nM

stdin: Which Kd is reported for this sequence? FLISGKGIGK
stdout: 53.2 nM

----------
# testedSystem: HLA-B*07:02
# testMethodNotes: IEDB peptide-MHC binding, purified MHC/competitive/radioactivity; filed as Kd, often an IC50 or EC50 that approximates it; bounds were set here for any values at or beyond the usual limits of such assays
# conditionsUsed: source organism: Vaccinia virus WR
assayReadout: Kd (nM)
Answers are plain numbers, in nM.

Consider the worked cases shown below.
In [3]: df
Out[3]:
   sequenceinput  assayreadout  valueunit  valuemeasured
0     LPMIIGEPII            Kd         nM           9.12
1     TPLHKYCVNL            Kd         nM           11.3
2     SPLPSLEYGA            Kd         nM           1640

Could you report Kd for every entry in the following list?
1. PPLISILMIF
2. SPTEMVDVSM
3. EVVMAYVGIK
4. LPPFTQHLL

stdout:
[270, 122, 9980, 401]

Could you report Kd for every entry in the following list?
1. KPFNNILNLI
2. IPYSRVNHA
3. DPDHYKDYA
4. EPSGNNYHIL

stdout:
1. 1140
2. 6.63
3. 14800
4. 1670
